- target system: T1, human GPRC5D (human, UniProt Q9NZD1 1-345)
- T1 construct: whole, on cells; also called hGPRC5D; G-protein coupled receptor family C group 5 member D
- T1 sequence (Q9NZD1 whole entry): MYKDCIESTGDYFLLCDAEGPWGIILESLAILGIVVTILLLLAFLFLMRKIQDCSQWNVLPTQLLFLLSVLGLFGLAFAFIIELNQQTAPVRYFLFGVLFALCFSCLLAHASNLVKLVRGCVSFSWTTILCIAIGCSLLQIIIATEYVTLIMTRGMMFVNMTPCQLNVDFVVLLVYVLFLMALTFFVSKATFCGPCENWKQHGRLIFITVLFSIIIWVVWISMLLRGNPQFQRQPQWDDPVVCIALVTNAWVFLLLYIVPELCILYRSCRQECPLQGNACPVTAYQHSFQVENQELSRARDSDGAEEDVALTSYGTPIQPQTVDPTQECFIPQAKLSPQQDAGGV
- procedure summary: FACS, CHOS-hGPRC5D cells
Can you tell me Top for the items I'm about to list?
I'd appreciate a reply containing only the number, no unit.

Exam item: Value lookup for Top; key = ch87A3G8 (antibody, V domains shown) VH: QVQLKESGPGLVAPSQSLSITCTVSGFSLSSYSVYWVRQPPGKGLEWLGVIWAGGSTNYNSALMSRLSINKDKSKSQVFLKMNSLQTDDSAIYYCAMRWLPRGLDFWGQGTSVTVSS VL: DIVMTQSHKFMSTSVGDRVSITCKASQDVGTAVAWYQQKPGQSPKLLIYWASTRHTGVPDRFTGSGSGTDFTLTISNVQSEDLADYFCQQYSTYYTFGGGTKLEIK
Marked response: 1950

Exam item: // lookup Top for ch101B3G3 (antibody, V domains shown) VH: EVQLQQSGPELVKPGASMKISCKASGYSFTGYTMNWVKQSHGKNLEWIGLINPYNGGTRYNQKFKDKATLTVDKSSSTAYMELLSLTSEDSAVYYCARWLLRYAMDYWGQGTSVTVSS VL: DIVMTQSQKFMSTSVGDRVSITCKASQNVGNAVAWYQQKPGHSPKLLISSASNRKNGVPDRFTGSGSGTDFTLTVSNMQSEDLADYFCQQYSDSSWTFGGGTKLEIK
Marked response: 3940
